Catalogue of IC50 values
measured.target: glucocorticoid receptor (Mus musculus, UniProt P06537)
Construct: endogenous in cells
Sequence (P06537 whole entry): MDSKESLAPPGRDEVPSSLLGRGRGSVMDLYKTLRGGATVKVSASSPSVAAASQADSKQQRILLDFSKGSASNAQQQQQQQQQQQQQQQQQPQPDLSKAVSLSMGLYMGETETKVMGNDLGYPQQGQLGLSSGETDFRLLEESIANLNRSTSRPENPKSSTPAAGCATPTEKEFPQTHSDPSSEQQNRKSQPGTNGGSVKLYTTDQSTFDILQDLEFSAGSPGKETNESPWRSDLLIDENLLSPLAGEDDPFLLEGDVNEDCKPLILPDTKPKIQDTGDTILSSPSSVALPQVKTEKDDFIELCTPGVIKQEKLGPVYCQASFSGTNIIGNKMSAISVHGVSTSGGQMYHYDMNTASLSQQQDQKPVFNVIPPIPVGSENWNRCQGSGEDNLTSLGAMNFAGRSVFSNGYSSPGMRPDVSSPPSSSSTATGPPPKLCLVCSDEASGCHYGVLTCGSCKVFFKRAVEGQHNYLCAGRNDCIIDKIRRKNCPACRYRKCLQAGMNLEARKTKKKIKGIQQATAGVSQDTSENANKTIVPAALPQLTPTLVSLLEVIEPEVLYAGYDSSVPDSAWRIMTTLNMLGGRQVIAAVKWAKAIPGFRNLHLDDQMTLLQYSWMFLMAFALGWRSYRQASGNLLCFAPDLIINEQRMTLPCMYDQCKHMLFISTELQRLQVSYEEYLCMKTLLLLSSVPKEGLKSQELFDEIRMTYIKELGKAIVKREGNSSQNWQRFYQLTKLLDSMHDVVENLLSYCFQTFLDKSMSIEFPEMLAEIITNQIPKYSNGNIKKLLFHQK
assay.info: competition for 3H-dexamethasone binding sites in LE II cytosol (glucocorticoid receptor affinity)
condition.parameters: Table 1; displacement of 25 nM 3H-DEX, LE II (mouse lung capillary endothelial) cytosol, 3 hours on ice; read-out: IC50 Binding LEII
Note: unit nM is implicit; provide only the numeric part.

molecule="CCCC(=O)O[C@]1(C(=O)OC)[C@@H](C)C[C@H]2[C@@H]3CC(F)C4=CC(=O)C=C[C@]4(C)[C@@]3(F)[C@@H](O)C[C@@]21C (stereo partly drawn) [compound 4]" measured_target="glucocorticoid receptor (Mus musculus, UniProt P06537)" readout_kind=IC50 unit_of_measurement=nM numeric_value=0.25
molecule="CCC(=O)O[C@]1(C(=O)OC)[C@@H](C)C[C@H]2[C@@H]3CC(F)C4=C(F)C(=O)C=C[C@]4(C)[C@@]3(F)[C@@H](O)C[C@@]21C (stereo partly drawn) [compound 3]" measured_target="glucocorticoid receptor (Mus musculus, UniProt P06537)" readout_kind=IC50 unit_of_measurement=nM numeric_value=15
molecule="CCC(=O)O[C@]1(C(=O)OC)[C@H](C)C[C@H]2[C@@H]3CC(F)C4=C(F)C(=O)C=C[C@]4(C)[C@@]3(F)[C@@H](O)C[C@@]21C (stereo partly drawn) [compound 8]" measured_target="glucocorticoid receptor (Mus musculus, UniProt P06537)" readout_kind=IC50 unit_of_measurement=nM numeric_value=0.25
molecule="CCCC(=O)O[C@]1(C(=O)OC)[C@H](C)C[C@H]2[C@@H]3CC(F)C4=CC(=O)C=C[C@]4(C)[C@@]3(F)[C@@H](O)C[C@@]21C (stereo partly drawn) [compound 9]" measured_target="glucocorticoid receptor (Mus musculus, UniProt P06537)" readout_kind=IC50 unit_of_measurement=nM numeric_value=0.025
molecule="CCC(=O)O[C@]1(C(=O)OC)[C@H](C)C[C@H]2[C@@H]3CC(F)C4=CC(=O)C=C[C@]4(C)[C@@]3(F)[C@@H](O)C[C@@]21C (stereo partly drawn) [compound 7]" measured_target="glucocorticoid receptor (Mus musculus, UniProt P06537)" readout_kind=IC50 unit_of_measurement=nM numeric_value=0.25

(Q) What value of measured IC50 is listed for CCC(=O)O[C@]1(C(=O)OC)[C@@H](C)C[C@H]2[C@@H]3CCC4=CC(=O)C=C[C@]4(C)[C@@]3(F)[C@@H](O)C[C@@]21C [compound 1] ?
(A) 2

* * *

Tested on: Epidermal Growth Factor
assay.info: hamster cheek pouch (HCP) angiogenesis inhibition, EGF stimulus
Format: in vivo, Male Syrian Golden hamsters
condition.parameters: Table 2; 10 μg EGF; compounds given daily at 0.4 mg/kg
Catalogue of HCP % Inhibition Stimulus EGF values
Note: unit % is implicit; provide only the numeric part.

Consider the reported HCP % Inhibition Stimulus EGF for these compounds:
compound="CCC(=O)O[C@]1(C(=O)SC)[C@@H](C)C[C@H]2[C@@H]3CC(F)C4=CC(=O)C=C[C@]4(C)[C@@]3(F)C(O)C[C@@]21C (stereo partly shown)" measured_target="Epidermal Growth Factor" numeric_value=100
compound="CCC(=O)O[C@]1(C(=O)SC)[C@H](C)C[C@H]2[C@@H]3CCC4=CC(=O)C=C[C@]4(C)[C@@]3(F)C(O)C[C@@]21C (stereo partly shown)" measured_target="Epidermal Growth Factor" numeric_value=30
compound="CCC(=O)O[C@]1(C(=O)SC)[C@H](C)C[C@H]2[C@@H]3CC(F)C4=CC(=O)C=C[C@]4(C)[C@@]3(F)C(O)C[C@@]21C (stereo partly shown)" measured_target="Epidermal Growth Factor" numeric_value=46

(Q) What value of measured HCP % Inhibition Stimulus EGF is listed for CCCC(=O)O[C@]1(C(=O)SC)[C@@H](C)C[C@H]2[C@@H]3CCC4=CC(=O)C=C[C@]4(C)[C@@]3(F)C(O)C[C@@]21C (stereo partly shown) ?
(A) 37
